method: qHTS for Inhibitors of human tyrosyl-DNA phosphodiesterase 1 (TDP1): qHTS in cells in absence of CPT; also: nearly all actives have a fitted effect of over 55% in size; also: potency is read from the fitted curve at half-maximal effect
conditionParameters: DT40 Tdp1-/- hTDP1 cells, no CPT, ATP luminescence, 48 h
Procedure: Human tyrosyl-DNA phosphodiesterase 1 (TDP1) is a novel repair gene, and we propose to use it as a new target for anticancer drug development. […] For the primary screen, Tdp1-/-;hTDP1 cells will be exposed to small molecules in the presence or absence of CPT, and their growth kinetics will be evaluated after 48 hours by measuring ATP activity. […] The hit compounds will then be evaluated in the presence or absence of CPT using Tdp1-/- cells. […]
Out of some 420,000 compounds screened, about 64,000 (15%) were called active. Another 27% or so got no clear call; they are omitted. Not all results are given here.
readoutType: Potency

CCOC(=O)N1CCN(C(=O)c2ccc(CN(c3ccc(C)c(C)c3)S(C)(=O)=O)cc2)CC1
23.1 µM (active)
Cc1ccc2nc(SC(C)C(=O)NCc3ccco3)[nH]c2c1 (centres undefined)
inactive
COC(=O)c1c(C)cc(O)c(C)c1O
inactive
O=C(NC(=S)Nc1ccc(Cl)c(C(=O)O)c1)c1cncc(Br)c1
inactive
